Test system: dog heart in situ
protocolDetails: Antianginal activity: aortic-coronary sinus difference in oxygen (myocardial oxygen consumption) in anesthetized dogs
Assay type: in vivo
measurementContext: 1 mg/kg i.v., 5 min
Structures can show the parent of a compound that is named as a salt.
reportedMetric: Arterio-Venous Difference in Oxygen Partial Pressure at 5 min (mmHg)
Write it as a number; the unit mmHg goes unstated.

*Q* // Arterio-Venous Difference in Oxygen Partial Pressure at 5 min lookup, key: Brc1ccc(NC2CCN3CCc4c(n(Cc5ccccc5)c5ccccc45)C3C2)cc1.Cl.Cl (stereo not drawn)
*A* 33

*Q* // Arterio-Venous Difference in Oxygen Partial Pressure at 5 min lookup, key: FC(F)(F)c1cccc(NC2CCN3CCc4c(n(Cc5ccccc5)c5ccccc45)C3C2)c1 (stereo not drawn) [TR3633, dihydrochloride]
*A* 35

*Q* // Arterio-Venous Difference in Oxygen Partial Pressure at 5 min lookup, key: CC(=O)Nc1ccc(NC2CCN3CCc4c(n(Cc5ccccc5)c5ccccc45)C3C2)cc1.Cl.Cl (stereo not drawn)
*A* 24
